assay: NCI Yeast Anticancer Drug Screen. Data for the bub3 strain (AID 167); settings: S. cerevisiae bub3 mutant strain, at 50.0 µM (retest, dose inferred, filed as 5.0), stronger effect = higher value
The panel holds about 79,000 compounds, 15% with a hit somewhere; the sample as a whole holds those more often.
measured.quantity: growth inhibition (%)

INSERT INTO results (compound, unit_spec, value_measured) VALUES
  ('Cc1ccccc1C[n+]1ccccc1Br', '%', 77),
  ('O=C(Nc1ccccc1)OCCN=c1c2ccccc2ccc2ccccc12', '%', 78),
  ('Cc1cc(O)ccc1SC#N', '%', 57),
  ('C/C(=C/C(=O)/C=C/c1ccccc1)c1c(C)[nH]c2ccccc12', '%', 1),
  ('CC[O-].CC[O-].[O-]c1ccccc1C=Nc1ccccc1.[O-]c1ccccc1C=Nc1ccccc1.[Ti+4]', '%', 12),
  ('O=C1CN(CCN2CCOCC2)CC(=O)N2CCCCN12', '%', -3),
  ('O=[N+]([O-])c1cccc2c1[nH]c1c(-c3ccccc3)nccc12', '%', 67),
  ('O=C(CC(=O)c1ccccc1)CC(=O)c1ccccc1Br', '%', 96),
  ('O=C(Nc1nnc(-c2ccccc2)s1)c1cc(=O)c2cc(Cl)ccc2o1', '%', 77),
  ('c1ccc(N=Nc2n[nH]c3ccccc23)cc1', '%', 91),
  ('CC(=O)OC1CCCCCCCCCCC12OCCO2 (configuration not stated)', '%', 96),
  ('CCCCCCCCCCCCn1cnc2ncnc(Cl)c21', '%', 41),
  ('NC(=O)c1ccccc1C(=O)O', '%', 9),
  ('COc1ccc(NCCN(C)C)c2c(=O)c3ccccc3sc12', '%', 0),
  ('O=C(Nc1ccccc1Cl)c1cccnc1', '%', -81),
  ('O=C1CSC(=S)N1Cc1ccccc1Cl', '%', 94),
  ('COc1ccc(CSC(=S)Nc2cc(C)c(C)cc2[N+](=O)[O-])cc1', '%', 96),
  ('O=c1oc2ccccc2c(O)c1C1=N/C(=N/N=C/c2ccc(Cl)cc2)SC1', '%', 97),
  ('CC(CC(C)[C@H]1CCC2[C@H]3C(CC(=O)[C@@]21C)[C@@]1(C)CCC(O)C[C@H]1C[C@@H]3O)C(=O)O (some centres not stated)', '%', 98),
  ('CC(C)(Br)C(Br)C(=O)C(Br)C(C)(C)Br (configuration not stated)', '%', 40),
  ('Oc1ccc2c(c1O)/C(=C/C=NCC1(O)OCC(O)C(O)C1O)C=N2 (configuration not stated)', '%', -3),
  ('CC(=O)C(C(C)=O)C1C=CC=CC=C1', '%', 86),
  ('O=C1NN(C2=NNC3(C(=O)N2)c2ccccc2-c2ccccc23)C(c2ccccc2)=N/C1=C/c1ccc(Cl)cc1', '%', -16),
  ('OC1CC2CCC(C1)N2CCCN1c2ccccc2Sc2ccc(Cl)cc21 (configuration not stated)', '%', 97),
  ('CCCCC(CC)CN1C(=O)C2C3C=CC(C3)C2C1=O (configuration not stated)', '%', -26),
  ('Cc1cc(NCCCCCCNc2cc(C)nc3cc(N(C)C)ccc23)c2ccc(N(C)C)cc2n1', '%', 96),
  ('O=C(CCCN1CCc2[nH]c3cc(F)ccc3c2C1)c1ccc(F)cc1', '%', 98),
  ('O=C(Sc1c(-c2ccccc2)c(=O)n(-c2ccccc2)c(=S)n1-c1ccccc1)c1cccs1', '%', 95),
  ('CC1C[C@]2(C)C(=S)Nc3ccccc3[C@@H]2Nc2ccccc21 (some centres not stated)', '%', 82),
  ('Cc1ccc(/C=N/NS(=O)(=O)c2ccccc2)c(C)c1', '%', 41),
  ('COc1cc2c(c(C3C(=O)N(C)c4ccc(Br)cc43)c1OC)OCO2 (configuration not stated)', '%', -1),
  ('CCC(C)OC(=O)c1cccc(C)c1 (configuration not stated)', '%', 23),
  ('CCCCCCCCCC1OCC(O)CO1 (configuration not stated) (tested in a mixture with another compound)', '%', 87),
  ('O=C(/C=C/c1ccc([N+](=O)[O-])o1)N1CCN(Cc2ccccc2)CC1', '%', 75),
  ('CSc1cccc(N2C(=O)C=CC2=O)c1', '%', 100),
  ('COC(=O)/C(C(C)=O)=C(\OC(C)=O)c1ccc(OC)c(OC)c1', '%', 86),
  ('CCCCCCCCCCCCCCCCCCNC(=S)/N=C/c1c(O)cc(C)oc1=O', '%', -8);

====

test: NCI Yeast Anticancer Drug Screen. Data for the cln2 rad14 strain (AID 165);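 further: 0% = growth equal to vehicle treated cultures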; conditions: S. cerevisiae cln2 rad14 strain, at 5.0 µM (retest, dose inferred, filed as 0.5)
Compounds without any hit were thinned out: in the full panel of roughly 79,000, 15% have a hit. Activity calls are given as the source filed them. Rule as the data show it: active = growth inhibition above about 70%; inactive = the rest.
Outcome codes: T = active, F = inactive

INSERT INTO assay_data (compound, discrete_label) VALUES
  ('CCCCCCCCCCCCCCCCN(C)c1ccc(S(=O)(=O)O)cc1[N+](=O)[O-]', 'F'),
  ('COc1cc(OC)c(C(c2cc3c(cc2O)OCO3)N2CCOCC2)c(OC)c1 (centres undefined)', 'F'),
  ('COc1ccc(/C=C2\N=C(c3ccco3)OC2=O)cc1Br', 'F'),
  ('Cc1ccc(S(=O)(=O)C(Br)CC(=O)c2ccccc2)cc1 (centres undefined)', 'T'),
  ('O=S(=O)(Nc1ccc2c3c(cccc13)C=C2)c1ccccc1', 'F'),
  ('COc1cc(CSc2ccc(O)cc2)cc(OC)c1OC', 'F'),
  ('O=C(O)C(S(=O)(=O)O)S(=O)(=O)O', 'T'),
  ('CC(C)Sc1nc(NC(=O)N(CCCl)N=O)cc(=O)[nH]1', 'F'),
  ('O=C(c1c(F)c(F)c(F)c(F)c1F)N1CCN(C(=O)c2c(F)c(F)c(F)c(F)c2F)C1=S', 'F'),
  ('CC(CN(C)C)C(/C=C/c1ccc(Cl)c(Cl)c1)=N\Nc1ccccc1 (centres undefined)', 'F'),
  ('CCCCCCCCCC(=O)CC(=O)c1c(O)cccc1O', 'F'),
  ('Cc1cccc(Cl)c1NC(=S)Nc1cccc(C(F)(F)F)c1', 'F'),
  ('O=S(=O)(O)C(O)c1ccc2ccc3cccc4ccc1c2c34 (centres undefined)', 'F'),
  ('CCOc1nc(N)nc(C)c1N=Nc1ccc(Cl)cc1Cl', 'F');

====

experiment: NCI Yeast Anticancer Drug Screen. Data for the mec2-1 strain (AID 157); conditions: S. cerevisiae mec2-1 strain, at 50.0 µM (retest, dose inferred, filed as 5.0), stronger effect = higher value
This is part of a sample that, as a whole, favours compounds with a hit. Of some 79,000 tested, about 15% had one in any assay.
Field: class. Source value: growth inhibition. Ranges: low class: < 30%; middle class: ≥ 30% and < 90%; high class: ≥ 90%

INSERT INTO measurements (compound, discrete_label) VALUES
  ('NC(=Nc1cc2ccccc2c2ccccc12)Nc1cc2ccccc2c2ccccc12', 'high class'),
  ('Nc1ncc(C(=O)c2ccccc2)cc1[N+](=O)[O-]', 'low class'),
  ('CCS(=O)(=O)c1ccc(NC(=O)OC2CCCCCCC2)cc1', 'middle class'),
  ('C/C(=N\NC(=O)c1ccc([N+](=O)[O-])cc1)c1ccccc1', 'low class'),
  ('CC(O)c1c2ccccc2cc2ccccc12 (centres undefined)', 'middle class'),
  ('O=[N+]([O-])c1ccc(/C=c2\sc3scc(-c4ccc([N+](=O)[O-])cc4)[n+]3\c2=C/c2ccc([N+](=O)[O-])cc2)cc1', 'high class'),
  ('Clc1cccc(Cl)c1C(Nc1nncs1)Nc1nncs1', 'middle class'),
  ('CCNC(=S)N/N=C(\C)c1cccc(C)n1', 'middle class'),
  ('CCc1cccc(C)c1NC(=O)C1=C(C)NC(C)=C(C(=O)Nc2c(C)cccc2CC)C1c1ccc2c(c1)OCO2', 'low class'),
  ('C=C(Br)CN(C)CC(=C)Br', 'low class'),
  ('COc1ccc(NC(=S)N/N=C/c2cccc(C)n2)cc1', 'high class'),
  ('O=C(c1ccc(Cl)cc1)C1OC12C(=O)Nc1c(Cl)cc(Cl)cc12 (centres undefined)', 'high class');

====

Assay: NCI Yeast Anticancer Drug Screen. Data for the bub3 strain (AID 167)
Settings: S. cerevisiae bub3 mutant strain, at 50.0 µM, stronger effect = higher value
Method: Growth inhibition of yeast strains with defined genetic alterations is measured as a screen for potential anti-cancer activity. Selected strains with alterations in DNA damage repair or cell cycle control were exposed to compounds and growth inhibition was measured relative to vehicle treated controls. The strain used in this assay is bub3
The panel holds about 79,000 compounds, 15% with a hit somewhere; the sample as a whole holds those more often.
measured.quantity: growth inhibition (%)

INSERT INTO measurements (compound, measured_quantity, unit_spec, value_measured) VALUES
  ('Oc1c(Cl)cc(Cl)cc1Br', 'growth inhibition', '%', 84.7),
  ('O=C1CN(c2cccc(Cl)c2)C(=O)CN1/N=C/c1ccc[nH]1', 'growth inhibition', '%', 98.3),
  ('CCOC(=O)N1c2ccc3ccccc3c2C=CC1C#N (stereo not drawn)', 'growth inhibition', '%', 86.3),
  ('Oc1ccc(CC2CCC(O)CC2)cc1 (stereo not drawn)', 'growth inhibition', '%', 46.6),
  ('Cc1[nH]c2ccccc2c1SCc1ccccc1', 'growth inhibition', '%', 99.5),
  ('COc1cc(Nc2ccc(Oc3ccc(O)cc3)cc2)c2ncccc2c1', 'growth inhibition', '%', 7.85),
  ('CC(=O)C1(C(C)=O)C2=C(C(=O)C(Cl)=C(Cl)C2=O)N2C=CC=CC21 (stereo not drawn)', 'growth inhibition', '%', 98.3),
  ('CN(C)CC/C(=N\Nc1ccc(Cl)c(Cl)c1)c1ccccc1', 'growth inhibition', '%', 99.6);

FYI, the data here is from PubChem BioAssay (NCI).
